Test system: OVCAR-8 ovarian
Assay: NCI-60 one-dose screen, 48 h (100 = growth as untreated, 0 = no growth, -100 = all killed)
Conditions: 10 µM unless noted
The panel holds about 83,000 compounds, 20% with a hit somewhere; the sample as a whole holds those more often.
ENDPOINT_NAME: growth (%)
# value in %; strip the unit string

Would you please look over these solved cases?
compound="CNc1ncc2cc(-c3ccc(-c4ncccc4F)cc3Cl)c(=O)n(CC3OCC(N)CO3)c2n1 (configuration not stated)" measurement=65.6
compound=Cc1nn(-c2ccccc2)c2ncnc(N/N=C/c3ccccc3)c12 measurement=96.7
compound="CCOC(=O)C1=NNC(c2ccc(Cl)cc2)C1C(=O)N1C(=S)NC(=O)C1CC(C)C (configuration not stated)" measurement=100
compound=O=c1c2ccccc2nc(COc2ccccc2)n1NS(=O)(=O)c1ccc(Cl)cc1 measurement=92
compound=COc1cccc(/C=C(/C)c2ccc3cccc(OC)c3[o+]2)c1O measurement=100

Lookup: Bench note: what growth did COc1ccc(-c2nc3ccc(-c4nnc(SCC(=O)Nc5ccc(C(=O)/C=C/c6ccc(Cl)cc6)cc5)o4)cc3[nH]2)cc1 show?
Found: 105

Lookup: Same for O=C1CCC(N2C(=O)c3ccc(NS(=O)(=O)c4ccccc4OC(F)(F)F)cc3C2=O)C(=O)N1 (configuration not stated)
Found: 10.9

Lookup: Would you kindly repeat that for Cc1ccc2sc3c(c2c1)OC(N)=C(C#N)C3c1ccc(Cl)cc1 (configuration not stated) ?
Found: 96.7

Lookup: Then this compound: CC1(C)[C@@H](O)CC[C@]2(C)[C@H]3CC[C@@H]4[C@H]5[C@H](C(=O)/C=C\c6ccccn6)CC[C@]5(O)CC[C@@]4(C)[C@]3(C)CC[C@@H]12
Found: 39.5

###

Test system: NCI-H522 lung
Experiment: NCI-60 one-dose screen, 48 h (100 = growth as untreated, 0 = no growth, -100 = all killed)
Details: 10 µM unless noted
The panel holds about 83,000 compounds, 20% with a hit somewhere; the sample as a whole holds those more often. Active and inactive are the calls of the source. How the source made its calls: active means growth percent below 10; inactive means the rest.
ENDPOINT_NAME: growth

compound=Cc1ccc2c(c1)C(=O)/C(=C/c1cccc(F)c1)S2 endpoint_name=growth measurement="93.2% (inactive)"
compound="COc1c(N2CC3CCCNC3C2)c(F)cc2c(=O)c(C(=O)N/N=C/c3ccc(N(C)C)cc3)cn(C3CC3)c12 (configuration not stated)" endpoint_name=growth measurement="73% (inactive)"
compound="Cc1cccc2c3c(sc12)C(c1ccc(Cl)cc1)c1c(nc(CC(=O)Nc2ccccc2)[nH]c1=O)O3 (configuration not stated)" endpoint_name=growth measurement="26.9% (inactive)"
compound=CNC(=O)c1cc(N2CCc3cc(NC(=O)Nc4ccc(Cl)c(C(F)(F)F)c4)ccc32)ccn1 endpoint_name=growth measurement="50% (inactive)"
compound=O=C(CSc1nnc(-c2ccc(Cl)cc2)n1-c1ccccc1)Nc1ccc(Br)cc1 endpoint_name=growth measurement="12.1% (inactive)"
compound="CCO/C=N/C1=C(C#N)C(c2ccc(F)cc2)c2sc3c(C)cccc3c2O1 (configuration not stated)" endpoint_name=growth measurement="7.88% (active)"

Lookup: // returns reported growth for input O=C(CCn1cc[n+](CC(=O)c2ccc(-c3ccccc3)cc2)c1)Nc1cccc2cccnc12
Found: 48% (inactive)

###

Measured growth, listed per entry.
System: MCF7 breast
Assay: NCI-60 one-dose screen, 48 h (100 = growth as untreated, 0 = no growth, -100 = all killed)
Conditions: 10 µM unless noted
About 83,000 compounds went through this panel and 20% of them were active in at least one assay; those are over-represented in the sample as a whole.
Please reply with the bare figure in % and do not write the unit itself.

A selection of reference data follows.
compound=Nc1nc(-c2cccc([N+](=O)[O-])c2)c(N=Nc2ccc([N+](=O)[O-])cc2Cl)s1 assayed_target="MCF7 breast" readout_units=% measurement=2.17
compound=CS(=O)(=O)Nc1cc(-c2ccc3ncc(C#N)c(NCc4cccc(F)c4)c3c2)cnc1Cl assayed_target="MCF7 breast" readout_units=% measurement=0.85
compound="Cc1cc(C)c(N2C(=O)CC(Nc3ccc(Cl)cc3Cl)C2=O)c(C)c1 (stereo unspecified)" assayed_target="MCF7 breast" readout_units=% measurement=91
compound=COc1ccccc1C(=O)Nc1cccc2c1C(=O)C(=O)C=C2 assayed_target="MCF7 breast" readout_units=% measurement=81
compound=O=S(=O)(NCCNc1nccc(-n2cnc3ccccc32)n1)c1ccc(Br)cc1 assayed_target="MCF7 breast" readout_units=% measurement=78.4
compound=N#C/C(=C\c1ccc(-c2ccc(Cl)cc2Cl)o1)c1ccc(F)cc1 assayed_target="MCF7 breast" readout_units=% measurement=66.9

Lookup: Tell me the measured growth of Cc1ccc(CSc2nc(-c3ccc(Cl)cc3)c(C#N)c(N3CCNCC3)n2)cc1 , please.
Found: 58.5

Lookup: Now try CC(C)(C)n1cc(-c2ccnc(NCCCNS(=O)(=O)c3cccc(F)c3)n2)c(-c2ccc(Cl)c(O)c2)n1 .
Found: 97.9

Lookup: Cool, now COc1ccc([C@@H]2[C@@H](O)C(=O)N2c2cc(OC)c(OC)c(OC)c2)cc1F
Found: 9.59

Lookup: Also COc1ccc2c(c1)c(CC(=O)[Se]CC#N)c(C)n2C(=O)c1ccc(Cl)cc1 ?
Found: 17.3

Lookup: # iterate: C=CCOc1cccc(/C=C2\SC(=S)N(C3CC(=O)N(c4ccc(Br)cc4)C3=O)C2=O)c1 (stereo unspecified)
Found: 90.7

Lookup: Note, next up: COc1cc(OC)c(S(N)(=O)=O)cc1C(C)=O
Found: 89.8

###

Tested on: M14 melanoma
Assay: NCI-60 one-dose screen, 48 h
Details: 10 µM unless noted
About 83,000 compounds went through this panel and 20% of them were active in at least one assay; those are over-represented in the sample as a whole. Active and inactive are the calls of the source. The calls were made as follows: active = growth percent below 10; inactive = the rest.
Outcomes you can answer with include only these: t = active, f = inactive

Reference set (2 entries):
structure_as_smiles=c1n[nH]cc1-c1nc2ccc3[nH]ncc3c2c2c1CCCC2 group=t
structure_as_smiles=NC(N)=Nc1ccc(Oc2cccc(Nc3ccc(Cl)c(C(F)(F)F)c3)c2)cc1 group=f

From here, focus on the item given below.
Lookup: Which outcome did this test record for the compound NC(N)=Nc1ccc(Oc2cccc(Nc3ccc(Br)c(C(F)(F)F)c3)c2)cn1 ?
Found: t

###

Tested on: SK-OV-3 ovarian
Test: NCI-60 one-dose screen, 48 h
Conditions: 10 µM unless noted
The panel holds about 83,000 compounds, 20% with a hit somewhere; the sample as a whole holds those more often. Activity calls are given as the source filed them. The calls were made as follows: active = growth percent below 10; inactive = the rest.
Assign a class; possible classes are y for active, n for inactive

compound=O=C(CSc1nnc(-c2ccc(Cl)cc2)n1-c1ccccc1)Nc1cccc(Cl)c1 group=n
compound=Cc1ccc(-c2cc3nc(C(Cl)Cl)nc(-c4cccs4)n3n2)cc1 group=n
compound=CC1(C)CC[C@]2(C(=O)N3CCOCC3)CC[C@]3(C)C(=CC[C@@H]4[C@@]5(C)C/C(=C/c6ccco6)C(=O)C(C)(C)[C@@H]5CC[C@]43C)[C@@H]2C1 group=n
compound=CC(=O)c1nnn(-c2c(C(=O)n3nc(C)cc3C)sc(=S)n2-c2ccccc2)c1C group=n
compound="c1ccc(C(c2nc3ncncc3[nH]2)N2CSc3nc4ncncc4n3C2)cc1 (stereo not given)" group=n

Lookup: Entry COc1cc(C2N=C(NNc3ccccc3)NC(C)=C2C(C)=O)ccc1O (stereo not given) : call = ?
Found: n

Lookup: Then O=C(CSc1nc2ccccc2c(=O)n1-c1ccccc1)Nc1cccc(C(=O)/C=C/c2ccccc2Cl)c1 ?
Found: n

Lookup: Check COc1ccc(/C=N/NC(=O)c2cn(C3CC3)c3c(OC)c(N4CC5CCCNC5C4)c(F)cc3c2=O)cc1 (stereo not given) too.
Found: n

Lookup: Try this compound next: CCN(CC)c1cn(-c2ccc(S(N)(=O)=O)cc2)nn1
Found: n

Lookup: And Nc1nc(Nc2ccccc2SSc2ccccc2Nc2nc(N)nc(-c3ccccc3)n2)nc(-c2ccccc2)n1 ?
Found: n

Lookup: Param item: CC(Nc1c(C#N)cnc2ccc(-c3cnc(N)nc3)cc12)c1ccccc1 (stereo not given)
Found: y

Lookup: Another compound to check: O=S(=O)(NCCCNc1nccc(-c2[nH]c(-c3ccccc3)nc2-c2ccc(Cl)c(O)c2)n1)c1cccc2ccccc12
Found: n

Lookup: Now consider COc1ccc(C2CC(c3ccc(Nc4nc(NCCO)nc(N5CCOCC5)n4)cc3)=Nc3c(N)nc(N)nc3N2)cc1 (stereo not given) and answer again.
Found: n

Lookup: Please do the same for COc1ccc(C2c3sc4c(C)cccc4c3Oc3nc(CC(=O)Nc4ccccc4)[nH]c(=O)c32)cc1 (stereo not given) as well.
Found: n

Lookup: Follow-up entry: CCn1c(SCC(=O)Nc2cccc(C(=O)/C=C/c3cc(OC)c(OC)c(OC)c3)c2)nc2ccccc2c1=O
Found: n

###

Test system: NCI-H322M lung
Experiment: NCI-60 one-dose screen, 48 h (100 = growth as untreated, 0 = no growth, -100 = all killed)
Settings: 10 µM unless noted
Compounds without any hit were thinned out: in the full panel of roughly 83,000, 20% have a hit.
Listed next: entries and their corresponding growth.
Report only the number, with the unit % understood.

Solved entries (count: 4):
structure_as_smiles=NC(N)=Nc1ccc(Oc2ccc(Nc3ccc(Cl)c(C(F)(F)F)c3)cc2)cc1 assayed_target="NCI-H322M lung" endpoint_name=growth measurement=68.5
structure_as_smiles=CNC(=O)c1c(NC(=O)c2cccc(C(F)(F)F)c2F)sc2c1CCC(=O)C2 assayed_target="NCI-H322M lung" endpoint_name=growth measurement=82.4
structure_as_smiles=CN1CCN(c2ccc(/C=N/Nc3nc4ccccc4c(=O)n3-c3ccccc3)cc2)CC1 assayed_target="NCI-H322M lung" endpoint_name=growth measurement=103
structure_as_smiles=CC(=O)Nc1cccc(Nc2nc(N[C@@H](C)c3ccccc3)c3ccccc3n2)c1 assayed_target="NCI-H322M lung" endpoint_name=growth measurement=53.7

Lookup: Value lookup for growth; key = Cc1ccc(-c2cc3nc(C(Cl)Cl)nc(C)n3n2)cc1
Found: 101

Lookup: Try COc1cccc(/C=C(/C)c2ccc3cccc(OC)c3[o+]2)c1O next.
Found: 98.8

Lookup: Thanks! And O=C(CSc1nnc(-c2ccc3nc(-c4ccccc4)[nH]c3c2)o1)Nc1ccc(C(=O)/C=C/c2ccccc2)cc1 ?
Found: 102

Lookup: Same question, CC(=O)O[C@@H]1C(=O)N(c2cnccn2)[C@H]1c1ccccc1[N+](=O)[O-] this time
Found: 36.6

Lookup: Continue with COc1ccc(COc2ccc(/C=C3\C(=O)Nc4ccccc43)cc2OC)cc1
Found: 106

Lookup: Ok, now NS(=O)(=O)c1ccc(Nc2nc(N/N=C/CCc3ccccc3)nc(Nc3ccccc3)n2)cc1
Found: 108

Lookup: Now consider NC(=O)c1c(NC(=O)c2ccccc2C(F)(F)F)sc2c1CCC(=O)C2 .
Found: 105
